STUDY SYSTEM: α1A adrenoceptor (prostate) (Rattus norvegicus, UniProt P43140)
Construct: from tissue; host or cells: isolated prostate tissue
Sequence (P43140 whole entry): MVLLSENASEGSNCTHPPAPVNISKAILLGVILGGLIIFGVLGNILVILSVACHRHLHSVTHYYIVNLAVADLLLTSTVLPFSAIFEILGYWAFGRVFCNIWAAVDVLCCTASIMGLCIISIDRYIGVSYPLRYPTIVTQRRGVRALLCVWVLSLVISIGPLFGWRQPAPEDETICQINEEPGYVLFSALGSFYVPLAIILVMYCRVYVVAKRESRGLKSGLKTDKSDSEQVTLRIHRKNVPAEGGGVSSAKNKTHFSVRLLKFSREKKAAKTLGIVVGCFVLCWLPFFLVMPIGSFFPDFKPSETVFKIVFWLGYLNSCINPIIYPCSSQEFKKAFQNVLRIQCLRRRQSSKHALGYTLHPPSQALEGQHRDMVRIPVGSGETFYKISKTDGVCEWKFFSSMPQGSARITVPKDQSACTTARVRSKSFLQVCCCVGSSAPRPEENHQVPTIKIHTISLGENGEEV
TEST DETAILS: In vitro functional assay, isolated prostate, phenylepinephrine contraction
Format: cell-based
ASSAY CONDITIONS: functional, from pKB
Method: In order to study selectivity of action of these compounds towards different a-adrenoceptor subtypes, the ability of these compounds to antagonise (α1D) prostate (α1A) and spleen (α1B) was studied. Aorta and spleen tissues were isolated from urethane anaesthetized (1.5 g/kg) male wister rats. […] Contractile response was monitored using a force displacement transducer and recorded on chart recorders. […] Antagonist affinity was calculated and expressed as pKB values in Table II.
Where a name gives a salt, the structure may show the parent alone.
REPORTED METRIC: Selectivity α1B/α1A

Some solved cases for reference:
| COMPOUND | Selectivity α1B/α1A |
| --- | --- |
| CC(C)Oc1ccccc1N1CCN(CCCN2C(=O)C3CC(O)C(O)CC3C2=O)CC1 (centres unmarked) [Compound No. 23] | 5 |
| CCOc1ccccc1N1CCN(CC(O)CN2C(=O)C3CC=CCC3C2=O)CC1 (centres unmarked) [Compound No. 11, hydrochloride] | 0.1 |

A = CC(C)Oc1ccccc1N1CCN(CCCN2C(=O)C3CC(O)C(O)CC3C2=O)CC1 (centres unmarked) [Compound No. 13]
B = O=C1CCCC(=O)N1CCCN1CCN(c2ccccc2OCC(F)(F)F)CC1
Query: Kindly identify which of A and B has the larger recorded Selectivity α1B/α1A value. Please reply using the label of the selected record.
Reply: A
